Assign Kd to each entry below.
- target.desc: T1, human CD40-Fc protein (human, UniProt P25942 21-193)
- T1 construct: also called human CD40-Fc fusion protein; CD40-Fc antigen; not shown: Fc part
- run.description: BLI (ForteBio), CD40-Fc on AHQ sensor, 100 nM Fab in solution, monovalent, 1:1 model
Give bare numbers, in nM.

Would you please look over these solved cases?
- binder: "ADI-55140 Fab (Fab, V domains shown) VH: QVQLVESGGGVVQPGRSLRLSCAASGFTFEKYGMHWVRQAPGKGLEWVAVIHYEGSIKYYADSVKGRFTISRDNSKNTLYLQMNSLRAEDTAVYYCARDTSRGHDIWGQGTMVTVSS VL: EIVLTQSPGTLSLSPGERATLSCRASQSVSYDYLAWYQQKPGQAPRLLIYGASTRANGIPDRFSGSGSGTDFTLTISRLEPEDFAVYYCGEYADYPPFTFGGGTKVEIK"
  Kd / nM: 5.77
- binder: "ADI-55164 Fab (Fab, V domains shown, also called Fab fragment of ADI-55164) VH: EVQLVESGGGLVQPGRSLRLSCAASGFTFDDYAMHWVRQAPGKGLEWVSGISWSSDSIHYADSVKGRFTISRDNAKNSLYLQMNSLRAEDTAVYYCAKDPTATTGARGYFDLWGRGTLVTVSS VL: DIQMTQSPSSVSASVGDRVTITCRASKVISSWLAWYQQKPGKAPKLLIYAASYLESGVPSRFSGSGSGTDFTLTISSLQPEDFATYYCQQHSSFPPTFGGGTKVEIK"
  Kd / nM: 0.663

Field Kd (entry ADI-55144 Fab (Fab, V domains shown) VH: QVQLVESGGGVVQPGRSLRLSCAASGFTFEKYGMHWVRQAPGKGLEWVAVISYEGTKKYYADSVKGRFTISRDNSKNTLYLQMNSLRAEDTAVYYCARDTSRGHDIWGQGTMVTVSS VL: EIVLTQSPGTLSLSPGERATLSCRASQSVSYSYLAWYQQKPGQAPRLLIYGASSLATGIPDRFSGSGSGTDFTLTISRLEPEDFAVYYCQQYSDYPPFTFGGGTKVEIK ) reads 2.08
